Kindly supply the reported Height of Peak/Height of Valley values for the records listed here.
Test system: X- and Y-chromosome bearing bovine sperm stained with Hoechst 33342
assay-details: Split quality: height of peak divided by height of valley (PV), flow cytometry of stained bovine sperm
Assay type: cell-based
measurement-parameters: Ex 5; dye 25 μM; Hoechst 14 μL/2 mL
Please reply with the value in numeric form only.

Input line: What value of Height of Peak/Height of Valley has been reported for the following compound? O=S1(=O)OC(c2ccc(O)cc2)(c2ccc(O)cc2)c2ccccc21 [Phenol Red, phenolsulfonphthalein]
Output line: 1.65

Input line: What value of Height of Peak/Height of Valley has been reported for the following compound? O=C([O-])C1=NN(c2ccc(S(=O)(=O)[O-])cc2)C(=O)/C1=N/Nc1ccc(S(=O)(=O)[O-])cc1.[Na+].[Na+].[Na+] [Yellow 5]
Output line: 1.54

Input line: What value of Height of Peak/Height of Valley has been reported for the following compound? COc1cc(S(=O)(=O)O)c(C)cc1N=Nc1c(O)ccc2cc(S(=O)(=O)O)ccc12 [Red 40, reference compound]
Output line: 1.94

Input line: What value of Height of Peak/Height of Valley has been reported for the following compound? O=S(=O)([O-])c1ccc(N=Nc2c(O)ccc3cc(S(=O)(=O)[O-])ccc23)cc1.[Na+].[Na+] [Yellow 6]
Output line: 2.07
